Source of measurements: PubChem BioAssay

System: TRPC4 beta (transient receptor potential cation channel C4), mouse
assay.protocol: TRPC4 cation channel opening, retest – cell-based, Fluo4 calcium, HEK293 TRPC4beta/mu-opioid, duplicates, 10 µM, confirmation (AID 2426)
test.context: Fluo4 calcium fluorescence, at 10 µM
The source made the active and inactive calls.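 How the source made its calls: active means fluorescence ratio normalized to control raised more than 50% in primary screen plus both repeat runs; inactive means the rest.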
Possible outcomes: active, inactive

INSERT INTO assay_data (compound, class_assignment) VALUES
  ('COc1ccc(Sc2nc(-c3ccccc3)ncc2C(=O)O)cc1', 'inactive'),
  ('CSc1ccc(S(=O)(=O)NCC(=O)OCC(=O)N(C)Cc2ccccc2)cc1[N+](=O)[O-]', 'inactive'),
  ('O=C(COc1ccccc1-c1ccccc1)NCc1ccco1', 'inactive'),
  ('OCC1(CCc2ccccc2)CCN(Cc2cccn2-c2cccnc2)CC1', 'active'),
  ('CCOC(=O)C1(CCOc2ccccc2)CCN(Cc2cc(OC)ccc2OC)CC1', 'active'),
  ('CC(C)CCNC(=O)CCC(=O)NNc1nc2ccccc2c2nc(-c3ccccc3)nn12', 'inactive'),
  ('CCCCN(Cc1ccccc1)C(=O)C1CCN(Cc2sccc2C)CC1', 'inactive'),
  ('Cc1cc(C)cc(N(CC(=O)Nc2ccc(C)cc2Cl)S(=O)(=O)c2c(C)[nH]c(=O)[nH]c2=O)c1', 'inactive'),
  ('COc1ccc(F)cc1C(=O)C1CCCN(Cc2ccc3c(c2)OCCO3)C1 (stereo not given)', 'inactive'),
  ('CCOC(=O)c1c(C)n(C)c2ccc(OCC(O)CNCCc3ccccc3)cc12 (stereo not given)', 'inactive');
